Taken from ChEMBL document CHEMBL1201862.

GI50 reference
# Test system: SF-295
# measurementProtocol: NCI tumour cell line growth inhibition, 48 h
The source made the active and inactive calls. No stated cut-off is given here; in the data, active = GI50 up to about 1.1 µM and inactive = higher.

{"columns": ["compound", "GI50"],
 "data": [
  ["O=C1CSC(/C(=C/c2ccccc2)c2nc3ccccc3[nH]2)=N1", "63.8 µM (inactive)"],
  ["O=S(=O)(OI(OI(OS(=O)(=O)C(F)(F)F)c1ccccc1)c1ccccc1)C(F)(F)F", "21.7 µM (inactive)"],
  ["S=C1Nc2ccccc2SC1c1ccccc1 (centres undefined)", "16.4 µM (inactive)"],
  ["COc1ccc(C[C@@H]2Cc3cc(OC)c(OC)cc3CN2C)cc1", "57 µM (inactive)"],
  ["C=Cc1c(-c2ccccc2)cnc2[nH]c3ccccc3c12", "> 50 µM (inactive)"],
  ["CN(C)c1ccc(-c2cc(O)c3cc4c(cc3n2)OCO4)cc1", "> 100 µM (inactive)"],
  ["Cc1nc(/C(=N\\n2cnnc2)Nc2ccc(Br)cc2)no1", "> 100 µM (inactive)"],
  ["O=C1OC(C2Cc3cc4c(cc3C2=O)CCC4)c2ccccc21 (centres undefined)", "74.5 µM (inactive)"],
  ["CC(Nc1ncc2c(n1)-c1ccccc1OC2)C(=O)O (centres undefined)", "> 100 µM (inactive)"],
  ["Cc1ccc(S(=O)(=O)NNC2(NS(=O)(=O)c3ccc(Cl)cc3)C(Cl)=C(Cl)C(=O)c3ccccc32)cc1 (centres undefined)", "20.9 µM (inactive)"],
  ["O=[N+]([O-])c1nccn1CCCNCCCn1ccnc1[N+](=O)[O-]", "> 100 µM (inactive)"],
  ["Cc1nc(C)c(N2CCN([N+](=O)[O-])CC2)c(O)n1", "> 100 µM (inactive)"],
  ["CCN(CC)Cc1cc(Nc2c3ccccc3nc3c2[nH]c2ccccc23)ccc1O", "1.37 µM (inactive)"],
  ["O=C1C(N2C(=O)c3ccccc3C2=O)CN1C(COCc1ccccc1)c1ccc(OCc2ccccc2)cc1 (centres undefined)", "> 100 µM (inactive)"]
]}
